Observed pIC50 values for UniProtKB Q14432 are listed in what follows.
Sequence (Q14432 whole entry): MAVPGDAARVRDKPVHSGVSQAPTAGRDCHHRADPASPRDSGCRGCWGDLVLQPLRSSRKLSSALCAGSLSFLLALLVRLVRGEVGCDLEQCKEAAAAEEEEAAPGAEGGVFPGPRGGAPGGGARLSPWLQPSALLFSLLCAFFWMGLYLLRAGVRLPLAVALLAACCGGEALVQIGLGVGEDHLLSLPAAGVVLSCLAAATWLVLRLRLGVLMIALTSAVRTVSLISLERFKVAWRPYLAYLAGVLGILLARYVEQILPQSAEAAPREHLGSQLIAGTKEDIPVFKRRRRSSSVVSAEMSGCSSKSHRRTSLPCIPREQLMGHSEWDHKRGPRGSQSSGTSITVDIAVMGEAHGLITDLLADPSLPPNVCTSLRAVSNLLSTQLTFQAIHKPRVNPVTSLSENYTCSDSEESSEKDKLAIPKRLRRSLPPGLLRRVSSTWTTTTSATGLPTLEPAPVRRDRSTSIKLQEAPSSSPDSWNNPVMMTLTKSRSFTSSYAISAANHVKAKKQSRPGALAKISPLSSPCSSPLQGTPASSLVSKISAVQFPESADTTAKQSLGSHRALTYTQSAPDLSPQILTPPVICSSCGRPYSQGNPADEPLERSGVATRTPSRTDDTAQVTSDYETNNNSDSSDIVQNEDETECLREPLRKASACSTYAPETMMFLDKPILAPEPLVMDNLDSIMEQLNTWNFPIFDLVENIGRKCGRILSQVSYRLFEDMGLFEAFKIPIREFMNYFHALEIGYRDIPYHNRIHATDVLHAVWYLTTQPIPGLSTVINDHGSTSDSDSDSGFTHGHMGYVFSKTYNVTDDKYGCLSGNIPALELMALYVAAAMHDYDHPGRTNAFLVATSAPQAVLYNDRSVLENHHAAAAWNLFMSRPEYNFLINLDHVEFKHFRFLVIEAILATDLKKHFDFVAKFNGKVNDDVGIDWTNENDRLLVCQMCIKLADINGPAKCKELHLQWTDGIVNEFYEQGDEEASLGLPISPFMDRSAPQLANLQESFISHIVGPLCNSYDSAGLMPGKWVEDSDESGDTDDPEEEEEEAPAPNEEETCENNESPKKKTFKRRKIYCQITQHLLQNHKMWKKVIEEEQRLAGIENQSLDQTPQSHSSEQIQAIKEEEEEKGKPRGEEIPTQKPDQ
Numbers only, as −log10 of the molar value.

Provide pIC50 values for the following items, in order.
1. COc1ccc(C(=O)c2ccc3nc4[nH]c(=O)[nH]c4cc3c2)cc1OC
2. O=C(O)CCCCON=C(c1cccnc1)c1ccc2nc3[nH]c(=O)[nH]c3cc2c1 [Compound 14, monohydrate]
3. O=C(c1cccnc1)c1ccc2nc3[nH]c(=O)[nH]c3cc2c1 [Compound 5, monohydrate]
4. CN(C(=O)CO/N=C(\c1ccccc1)c1ccc2nc3[nH]c(=O)[nH]c3cc2c1)C1CCCCC1
5. O=C(c1ccccc1)c1ccc2nc3[nH]c(=O)[nH]c3cc2c1

7.07
7.00
6.92
7.77
7.38

Requested field: pIC50. Item: "Cc1ccc(C(=O)c2ccc3nc4[nH]c(=O)[nH]c4cc3c2)cc1"
7.74

Entry source: patent US5516908A
